Data provenance is patent US20210079109A1.

Examples of binders with documented 100 nM Ag Bound (RU) follow.
Molecular target: T1, recombinant human CD63 extracellular loop 2 expressed with a C-terminal human Fc tag (human)
T1 construct: also called hCD63 EC loop 2-hFc; human CD63 EC loop 2-Fc
T1 sequence (chain, as listed by the source limits assumed): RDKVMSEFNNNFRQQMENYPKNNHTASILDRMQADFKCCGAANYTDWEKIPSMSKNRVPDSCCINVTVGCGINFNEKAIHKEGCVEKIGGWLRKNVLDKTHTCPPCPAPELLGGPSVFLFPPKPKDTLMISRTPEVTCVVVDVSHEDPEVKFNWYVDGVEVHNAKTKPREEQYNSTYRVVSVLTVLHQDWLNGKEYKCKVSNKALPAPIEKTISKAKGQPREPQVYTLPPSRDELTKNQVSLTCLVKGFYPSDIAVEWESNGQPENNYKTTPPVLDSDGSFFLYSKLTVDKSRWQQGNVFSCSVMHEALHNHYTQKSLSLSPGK
Assay: SPR Biacore, mAb captured, 37C
The reply should be a number in RU, with the unit left off.

• H1M12388N (antibody, V domains shown) VH: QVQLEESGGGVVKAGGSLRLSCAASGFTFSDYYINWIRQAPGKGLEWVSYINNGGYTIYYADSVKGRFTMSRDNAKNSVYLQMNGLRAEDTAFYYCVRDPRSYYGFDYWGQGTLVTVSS VL: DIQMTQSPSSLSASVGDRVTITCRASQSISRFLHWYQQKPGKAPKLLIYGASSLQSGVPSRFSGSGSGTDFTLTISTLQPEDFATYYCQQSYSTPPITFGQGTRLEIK = 158

Exam item: So what's the measured 100 nM Ag Bound (RU) for this one? H2M12385N (antibody, V domains shown, also called H2bM12385N; H2bM12385) VH: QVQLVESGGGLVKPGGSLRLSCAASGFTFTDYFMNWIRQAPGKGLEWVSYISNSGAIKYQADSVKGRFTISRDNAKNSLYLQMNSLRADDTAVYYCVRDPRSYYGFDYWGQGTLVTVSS VL: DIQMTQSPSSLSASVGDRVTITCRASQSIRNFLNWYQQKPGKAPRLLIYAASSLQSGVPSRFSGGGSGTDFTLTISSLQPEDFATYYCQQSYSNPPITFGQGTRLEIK
Marked response: 133

Exam item: May I ask what 100 nM Ag Bound (RU) has been recorded for H1M12451N (antibody, V domains shown) VH: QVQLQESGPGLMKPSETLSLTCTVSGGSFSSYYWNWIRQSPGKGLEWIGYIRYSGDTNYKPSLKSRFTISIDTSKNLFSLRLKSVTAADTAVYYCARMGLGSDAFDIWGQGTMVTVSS VL: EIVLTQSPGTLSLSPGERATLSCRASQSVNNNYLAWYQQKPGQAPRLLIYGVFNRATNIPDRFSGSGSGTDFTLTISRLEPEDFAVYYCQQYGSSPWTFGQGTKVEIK ?
Marked response: 118

Exam item: # get_value(readout='100 nM Ag Bound (RU)', item= H2M12395N (antibody, V domains shown, also called H2aM12395N) VH: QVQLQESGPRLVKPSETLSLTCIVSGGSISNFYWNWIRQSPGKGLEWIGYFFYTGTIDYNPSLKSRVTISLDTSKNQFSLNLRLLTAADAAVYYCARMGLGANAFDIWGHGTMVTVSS VL: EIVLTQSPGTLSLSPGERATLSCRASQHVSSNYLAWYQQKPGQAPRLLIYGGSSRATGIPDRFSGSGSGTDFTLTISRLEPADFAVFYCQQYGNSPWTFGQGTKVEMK )
Marked response: 123

Exam item: Please look up its 100 nM Ag Bound (RU): H1M12386N (antibody, V domains shown) VH: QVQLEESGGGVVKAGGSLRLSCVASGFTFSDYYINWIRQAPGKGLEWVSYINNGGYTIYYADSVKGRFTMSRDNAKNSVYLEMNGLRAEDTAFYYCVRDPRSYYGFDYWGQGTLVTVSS VL: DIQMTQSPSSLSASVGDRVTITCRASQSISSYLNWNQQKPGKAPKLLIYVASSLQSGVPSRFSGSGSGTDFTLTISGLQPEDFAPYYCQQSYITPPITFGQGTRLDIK
Marked response: 170

Exam item: Given the entry H2M12452N (antibody, V domains shown, also called H2aM12452N) VH: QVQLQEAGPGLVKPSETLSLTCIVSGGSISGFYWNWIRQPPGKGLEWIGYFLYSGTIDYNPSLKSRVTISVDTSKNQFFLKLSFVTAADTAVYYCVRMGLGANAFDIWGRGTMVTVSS VL: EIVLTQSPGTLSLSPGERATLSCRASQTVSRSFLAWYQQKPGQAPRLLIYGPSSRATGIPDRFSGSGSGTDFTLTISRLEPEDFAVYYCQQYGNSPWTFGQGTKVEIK , report its measured 100 nM Ag Bound (RU).
Marked response: 104
